- system: CaLsb4
- experiment_notes: SPOT peptide array binding signal intensity (averaged, normalized) (arbitrary units (background-subtracted, floor 0; scale differs between SH3 domains)); higher = stronger binding of the SH3 domain to the peptide
assay_endpoint: SPOT peptide array binding signal intensity

binder	value_qualifier	value_reported
MKRSRPSRSIPYTTP	=	590
RPKRRAPPPVPKKPS	=	2700
PKRRAPPPVPKKPSS	=	2470
FPGKKSPRLPHRNKK	=	4250
NQARKPFLLPATELS	≤	0
FVLRYYILIPHEQWD	=	31.5
STPQTMRQAPKRPDA	=	283
